# MIC per entry
# Test system: Escherichia coli
# test_description: Compound was tested for its antibacterial activity against Escherichia coli NCIB 8879 strain.
# Type: functional
measured_metric: MIC (µg/mL)

- C[C@@H](NC(=O)[C@@H](N)Cc1ccccc1)P(=O)(O)O: 0.5
- C[C@@H](NC(=O)[C@@H](N)CCCN=C(N)N)P(=O)(O)O: 0.25
- CCC[C@H](N)C(=O)N[C@H](C)P(=O)(O)O: 0.03
- C[C@@H](NC(=O)[C@@H](N)CCCCN=C(N)N)P(=O)(O)O: 0.25
- C[C@@H](NC(=O)[C@@H](N)Cc1cccs1)P(=O)(O)O: 0.5
- C[C@H](N)C(=O)N[C@@H](C)P(=O)(O)O: 1
- CSC[C@H](N)C(=O)N[C@H](C)P(=O)(O)O: 0.03
- C[C@@H](NC(=O)[C@@H](N)CS)P(=O)(O)O: 32
- CSCC[C@H](N)C(=O)N[C@H](C)P(=O)(O)O: 0.25
- C[C@@H](NC(=O)[C@@H](N)CCS(C)(=O)=O)P(=O)(O)O: 16
- C[C@@H](NC(=O)[C@@H](N)CC[S+](C)[O-])P(=O)(O)O (some centres undefined): 4
- C[C@@H](NC(=O)[C@@H](N)CF)P(=O)(O)O: 0.25
- CCCSC[C@H](N)C(=O)N[C@H](C)P(=O)(O)O: 0.06
- C[C@@H](NC(=O)[C@@H](N)CCC/N=C(\N)N[N+](=O)[O-])P(=O)(O)O: 0.5
